Reference source for all entries: patent US10689383B2

- TARGET_ENTITY: human RORγt (Ligand Binding Domain) (Homo sapiens, UniProt P51449)
- Construct: purchased Crelux (Planegg, Germany) batch no PC5032-1
- MEASUREMENT_PROTOCOL: Fluorescence Polarization (FP) Assay
- TEST_PARAMETERS: Fluorescence Polarization (FP) Assay; values given as upper bounds of activity ranges; read-out: FP activity range
Form field: IC50 (one value per entry).

COMPOUND	IC50
CC(C)(C)C[C@@H](Nc1ncnc(N2CCC[C@@H]2c2ccc(C(F)(F)F)cc2)c1F)C(N)=O (single isomer, unassigned) [Example 5]	< 500 nM
COc1ccc(C[C@@H](Nc2ncnc(N3CCCC3c3ccc(C(F)(F)F)cc3)c2F)C(N)=O)cc1 (some centres unmarked)	< 500 nM
NC(=O)Cc1ccc(CNc2ncnc(N3CCC3c3ccc(C(F)(F)F)cc3)c2F)cc1 (centres unmarked)	< 2000 nM
O=C(O)Cc1ccc(Cn2ccc3c(N4CCCC4c4ccc(C(F)(F)F)cc4)ncnc32)cc1 (centres unmarked)	< 500 nM
CN1CC(CNc2ncnc(N3CCCC3c3ccc(C(F)(F)F)cc3)c2F)CC1=O (centres unmarked)	< 2000 nM
Cc1ccc(COc2ncnc(N3CCCC3c3ccc(C(F)(F)F)cc3)c2F)cn1 (centres unmarked)	< 2000 nM

Ask: API: value(readout= IC50, system= human RORγt (Ligand Binding Domain) (Homo sapiens, UniProt P51449), query= `O=C(O)Cc1ccc(CNc2ncnc(N3CCC[C@@H]3c3ccc(C(F)(F)F)cc3)c2F)cc1` )
Result: < 500 nM

Ask: API: value(readout= IC50, system= human RORγt (Ligand Binding Domain) (Homo sapiens, UniProt P51449), query= OCCc1ccc(CNc2ncnc(N3CCCC3c3ccc(C(F)(F)F)cc3)c2F)cc1 (centres unmarked) )
Result: < 500 nM

Ask: API: value(readout= IC50, system= human RORγt (Ligand Binding Domain) (Homo sapiens, UniProt P51449), query= CC(C)(C)C[C@@H](Nc1nc(C(F)(F)F)nc(N2CCCC2c2ccc(C(F)(F)F)cc2)c1F)C(N)=O (some centres unmarked) )
Result: < 10000 nM

Ask: API: value(readout= IC50, system= human RORγt (Ligand Binding Domain) (Homo sapiens, UniProt P51449), query= `Fc1c(NC[C@H]2CC[C@H](Cc3nnn[nH]3)CC2)ncnc1N1CCOC[C@@H]1c1ccc(C(F)(F)F)cc1` )
Result: < 500 nM

Ask: API: value(readout= IC50, system= human RORγt (Ligand Binding Domain) (Homo sapiens, UniProt P51449), query= CC(C)(C)C[C@@H](Nc1ncnc(N2CCCC2c2ccc(Cl)cc2Cl)c1F)C(N)=O (some centres unmarked) )
Result: < 500 nM

* * *

Form field: IC50 (one value per entry).
- TARGET_ENTITY: human RORγt (Ligand Binding Domain) (Homo sapiens)
- Construct: purchased Crelux (Planegg, Germany) batch no PC5032-1
- Sequence (P51449 269-508 limits assumed): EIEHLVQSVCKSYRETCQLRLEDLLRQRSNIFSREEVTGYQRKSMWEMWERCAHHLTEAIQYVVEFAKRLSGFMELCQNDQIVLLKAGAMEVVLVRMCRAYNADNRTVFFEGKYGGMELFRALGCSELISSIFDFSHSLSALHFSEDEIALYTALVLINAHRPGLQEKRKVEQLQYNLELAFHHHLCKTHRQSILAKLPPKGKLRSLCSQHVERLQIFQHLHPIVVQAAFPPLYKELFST
- MEASUREMENT_PROTOCOL: Fluorescence Polarization (FP) Assay
- TEST_PARAMETERS: Fluorescence Polarization (FP) Assay; values given as upper bounds of activity ranges; read-out: FP activity range

Recorded IC50, per entry:
MOLECULE	IC50
CC(C)(C)C[C@@H](Nc1ncnc(N2CCCC2c2ccc(C(F)(F)F)cc2Cl)c1F)C(N)=O (some centres unmarked) [Example 35]	< 500 nM
COc1ccnc(CNc2ncnc(N3CCCC3c3ccc(C(F)(F)F)cc3)c2F)c1 (centres unmarked) [Example 131]	< 2000 nM
CC(C)(C)C[C@@H](Nc1ncnc(N2CCCC2c2ccc(C(F)(F)F)cc2)c1F)C1CNCCO1 (some centres unmarked) [Example 64]	< 2000 nM
CS(=O)(=O)N1CCC(F)(CNc2ncnc(N3CCOC[C@@H]3c3ccc(C(F)(F)F)cc3)c2F)CC1 [Example 266]	< 500 nM

Ask: What does the data say about its IC50? Entry: CS(=O)(=O)c1ccc(CNc2ncnc(N3CCOC[C@@H]3c3ccc(C(F)(F)F)cc3)c2F)cn1 [Example 293]
Result: < 1000 nM

* * *

- TARGET_ENTITY: human RORγt (Ligand Binding Domain) (Homo sapiens)
- Construct: purchased Crelux (Planegg, Germany) batch no PC5032-1
- MEASUREMENT_PROTOCOL: Fluorescence Polarization (FP) Assay
- TEST_PARAMETERS: Fluorescence Polarization (FP) Assay; values given as upper bounds of activity ranges; read-out: FP activity range
RESULT_TYPE: IC50

COMPOUND	RESULT_TYPE	RESULT
Fc1c(NCc2cccnc2)ncnc1N1CCCC1c1ccc(C(F)(F)F)cc1 (stereo not drawn) [Example 141]	IC50	< 2 µM
O=C(O)Cc1ccc(CNc2ncnc(N3CCOCC3c3ccccc3)c2F)s1 (stereo not drawn) [Example 282]	IC50	< 10 µM
O=C1Cc2cc(CNc3ncnc(N4CCCC4c4ccc(C(F)(F)F)cc4)c3F)ccc2N1 (stereo not drawn) [Example 122]	IC50	< 10 µM
COc1ccc(C2CCCN2c2ncnc(NCc3ccc(CC(N)=O)cc3)c2F)c(OC)c1 (stereo not drawn) [Example 318]	IC50	< 0.5 µM

Ask: What does the data say about its IC50? Entry: Cn1ccc(CNc2ncnc(N3CCCC3c3ccc(C(F)(F)F)cc3)c2F)c1 (stereo not drawn) [Example 105]
Result: < 10 µM

Ask: What does the data say about its IC50? Entry: CCC(C(=O)NCc1ccoc1C(N)=O)n1ccc2c(N3CCCC3c3ccc(-c4ccccc4)cc3)ncnc21 (stereo not drawn) [Example 4]
Result: < 0.5 µM

Ask: What does the data say about its IC50? Entry: CS(=O)(=O)N1CCC(CNc2ncnc(N3CCOC[C@@H]3c3ccc(C(F)(F)F)cc3)c2F)CC1 [Example 237]
Result: < 0.5 µM

Ask: What does the data say about its IC50? Entry: Fc1c(NCc2ccc(Cc3nnn[nH]3)cc2)ncnc1N1CCOC[C@@H]1c1ccc(OC(F)(F)F)cc1 [Example 246]
Result: < 0.5 µM

* * *

Form field: IC50 (one value per entry).
- TARGET_ENTITY: human RORγt (Ligand Binding Domain) (Homo sapiens)
- Construct: purchased Crelux (Planegg, Germany) batch no PC5032-1
- MEASUREMENT_PROTOCOL: Fluorescence Polarization (FP) Assay
- TEST_PARAMETERS: Fluorescence Polarization (FP) Assay; values given as upper bounds of activity ranges; read-out: FP activity range

MOLECULE	RESULT
Oc1nnc(CNc2ncnc(N3CCCC3c3ccc(C(F)(F)F)cc3)c2F)o1 (stereo not shown)	< 10 µM
NC(=O)Cc1ccc(CNc2ncnc(N3CC(F)(F)CC3c3ccc(C(F)(F)F)cc3)c2F)cc1 (stereo not shown)	< 0.5 µM
CN(C)C(=O)C1CCC(CNc2ncnc(N3CCCC3c3ccc(C(F)(F)F)cc3)c2F)O1 (stereo not shown)	< 10 µM

Shifting focus to the molecule that follows.
Ask: What does the data say about its IC50? Entry: `Fc1c(NCC2CCOCC2)ncnc1N1CCOC[C@@H]1c1ccc(C(F)(F)F)cc1`
Result: < 10 µM
